Just for reference, the supplement of paper PMC8540655 is where these values come from.

# Tested on: Aedes aegypti larvae
# assay notes: larval motility relative to same well at 0 h (fraction); higher = more motile (less active compound), active = 0.4 or less
# particulars: 10 µM; 2 h
Could you please report measured larval motility for the items listed next?
Respond numerically, and do not add a unit to the figure.

Supply recorded larval motility for O=C(Nc1nnc(-c2ccc(Cl)cc2)o1)c1ccc(F)cc1 here.
1.18

Give recorded larval motility. c1ccc(-c2nnc3c4ccccc4c(N4CCNCC4)nn23)cc1
0.808

Please report the measured larval motility for COc1ccc(-n2cnc3cc(NCc4ccco4)ccc32)cc1
0.835

Give the reported value of larval motility for this record: OC1O[C@H](CSc2ccc(F)cc2)[C@@H](O)[C@H]1O (some centres undefined)
1.09

Give the measured larval motility for O=C(/C=C/n1cnc(-c2cc(C(F)(F)F)cc(C(F)(F)F)c2)n1)NNc1cnccn1
0.908

Output larval motility of O=C(Cc1ccccc1F)Nc1nc2ccccc2[nH]1
0.888

Please give measured larval motility of the following entry: Cc1[nH]c2ccccc2c1CC(=O)N[C@@H](Cc1ccccc1)C(=O)N(C)c1ccccc1
0.963

Return value of larval motility for input CCCCCCCCCN1C[C@@H](O)[C@H](O)[C@@H](O)[C@@H]1CO , no commentary.
0.996

Please look at this compound and report its larval motility: CCc1cc(CCCOc2c(C)cc(-c3noc(C(F)(F)F)n3)cc2C)on1
0.695

Give larval motility for O=C1C=C(c2ccccc2)S(=O)(=O)c2ccccc21
0.748

Could you please provide reported larval motility for COC(=O)Nc1nc2cc(Sc3ccccc3)ccc2[nH]1 ? Thanks!
0.997

For the compound Cc1cc(C)n2nc(C(=O)NS(=O)(=O)c3c(C)cccc3OC(F)(F)F)nc2n1 , give its reported larval motility.
1.04

Entry CC(C)/N=c1\cc2n(-c3ccc(Cl)cc3)c3ccccc3nc-2cc1Nc1ccc(Cl)cc1 needs its larval motility filled in; supply it.
0.957

Kindly indicate its recorded larval motility. Item: O=[N+]([O-])/C(Br)=C/c1ccc(Br)o1
1.13

# return recorded larval motility for input Cc1c(F)cccc1NC(=O)Nc1ccc(Cl)c(S(=O)(=O)[C@H]2CCCNC2)c1O
0.645

Annotate the compound NCCCc1ccccc1C(=O)Nc1ncc([N+](=O)O)s1 with its measured larval motility.
0.869

Check the records and state larval motility for COc1ccc(OCc2ccc(COc3c(Cl)cccc3Cl)cc2)c(Cl)c1
1.19

Name the recorded larval motility of the item Nc1nc(O)c(Br)c(-c2ccccc2)n1 in your answer.
0.633

State, in one line, measured larval motility of CCc1ccccc1OCCN1CCCCCC1
1.18

Tell me its larval motility given Nc1nc(O)c2ncn(COCCO)c2n1 as the entry.
0.732

Give larval motility for the following compound: O=S(=O)(Nc1cccc2cccnc12)c1ccccc1
0.587

Supply recorded larval motility for Cn1cc(NC(=O)c2cc(NC(=O)c3ccc(/C=C/c4cnc5ccccc5c4)cc3)cn2C)cc1C(=O)NCCN1CCOCC1 here.
1.3

Look up and report measured larval motility for this entry: Cc1cc(-c2ccccc2)c(C(=O)C(=O)Nc2ccc(N3CCN(c4ncc(F)cn4)CC3)cc2)n1C
0.636

Please look at this compound and report its larval motility: CCc1cc(Nc2cc(=O)n(CCN3CCN(C(=O)c4ccccc4)CC3)c(=O)[nH]2)ccc1C
1.11

Return larval motility (reported value) for this compound: O=C(O)COc1cccc2c1CC[C@](O)(COC(=O)N(c1ccccc1)c1ccccc1)C2
0.909

For CCNC(=O)Nc1cc2c(-c3ccnc(C)c3)ccc(CNC(=O)OC)c2cn1 , write its larval motility.
0.695

Give larval motility for CNc1nc(=O)[nH]cc1F
0.634

Return the recorded larval motility value; entry: O=C(O)C[C@H]1CC[C@H](c2ccc(-c3ccc(Nc4ccc(C(F)(F)F)nc4)cn3)cc2)CC1
0.644

Given O=C(NCc1ccc2c3c(cccc13)C(=O)N2)c1cccs1 , respond with its larval motility.
0.944

Hello, please tell me recorded larval motility for this one: CONC(=N)c1ccc(-c2ccc(-c3ccc(C(=N)NOC)cc3)o2)cc1
0.699

Give recorded larval motility. CO/N=C(\C(=O)N[C@@H]1C(=O)N2C(C(=O)OCOC(=O)C(C)(C)C)=C(/C=C\c3scnc3C)CS[C@H]12)c1csc(N)n1
1.51

Could you please provide reported larval motility for CCCCCOc1ccc(/C=C2\Oc3c(ccc(O)c3O)C2=O)c(O)c1 ? Thanks!
0.621

Return reported larval motility. Input compound: C/C(=N\NC(=O)C1CC1c1ccccc1)c1ccc(NC(=O)c2ccco2)cc1 (centres undefined)
0.804

Return the recorded larval motility value; entry: Cc1cc(Nc2ccc(F)cc2)nc(SCc2nc3ccccc3[nH]2)n1
0.661

Please supply the value of reported larval motility for the item Cc1ccc(NC(=O)c2ccc(CN3CCN(C)CC3)cc2)cc1Nc1nccc(-c2cccnc2)n1
0.64

Tell me measured larval motility for O=C(c1nc2c(C(F)(F)F)cc(C3CC3)cn2c1Cl)N1CCN([C@H]2CC[C@H](O)CC2)C(=O)C1 please.
0.697

Recall and state the measured larval motility for O=C(Nc1ccccc1)N(Cc1cc(Br)ccc1O)c1ccc(F)cc1 .
0.646

Give recorded larval motility. CCc1cc(Cc2cnc(N)nc2N)cc2c1N(C)CCC2C (centres undefined)
0.948

Provide only the value of recorded larval motility for CCOC(=O)N[C@@H]1CC[C@@H]2[C@@H](C1)C[C@H]1C(=O)O[C@H](C)[C@H]1[C@H]2/C=C/c1ccc(-c2cccc(F)c2)cn1
1.18
